- study.system: IRAK4 (Homo sapiens, UniProt Q9NWZ3)
- Sequence (Q9NWZ3 1-460): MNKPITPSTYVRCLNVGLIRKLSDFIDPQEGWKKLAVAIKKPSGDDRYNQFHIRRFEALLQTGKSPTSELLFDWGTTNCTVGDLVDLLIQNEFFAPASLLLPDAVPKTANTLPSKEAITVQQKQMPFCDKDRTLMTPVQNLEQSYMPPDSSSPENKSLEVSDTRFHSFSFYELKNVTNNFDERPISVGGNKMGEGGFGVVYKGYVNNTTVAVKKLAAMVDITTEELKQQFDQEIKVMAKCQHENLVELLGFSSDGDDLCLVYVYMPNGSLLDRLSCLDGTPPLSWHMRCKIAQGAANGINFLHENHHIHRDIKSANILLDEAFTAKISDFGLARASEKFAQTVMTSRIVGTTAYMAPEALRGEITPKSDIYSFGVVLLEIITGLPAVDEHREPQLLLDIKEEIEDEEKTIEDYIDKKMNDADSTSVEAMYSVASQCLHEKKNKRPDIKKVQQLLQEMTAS
- assay.protocol: Reaction Biology NanoBRET target engagement assay in HEK-293 cells, IRAK4
- measurement.parameters: NanoBRET IRAK4 IC50, HEK-293 cells
Reported IC50 values are given for each entry in this list.

COc1cc2ncc(-c3ccnc(N[C@H]4CNCC[C@@H]4F)n3)n2nc1C1CC1 : 1 nM
CC(O)(c1cn2c(-c3ccnc(N[C@H]4CNCC[C@@H]4F)n3)cnc2cn1)C(F)(F)F (single isomer, unassigned) [Compound 70] : 29 nM
COc1cc2ncc(-c3cncc(N[C@H]4CNCC[C@@H]4F)n3)n2nc1C1CC1 : 1 nM
CC(O)(c1cn2c(-c3cncc(N[C@H]4CNCC[C@@H]4F)n3)cnc2cn1)C(F)(F)F (single isomer, unassigned) : 19 nM
F[C@H]1CCNC[C@@H]1Nc1cncc(-c2cnc3cc(OC4CC4)ccn23)n1 : 1 nM

// `CC(C)Oc1ccn2c(-c3ccnc(N[C@@H]4CCCNC4)n3)cnc2c1` : IC50 value = < 0.5 nM

// `COc1cc2ncc(-c3ccnc(N[C@@H]4CCCNC4)n3)n2cc1C(C)(C)O` : IC50 value = < 0.5 nM

// `COc1cc2ncc(-c3cncc(N[C@H]4CNCC[C@@H]4F)n3)n2cc1C(C)(C)O` : IC50 value = < 0.5 nM

// `F[C@H]1CCNC[C@@H]1Nc1nccc(-c2cnc3cc(OC4CC4)ccn23)n1` : IC50 value = 0.8 nM

The reported measurements were obtained from patent US20250154144A1.
